# Tested on: SW480
# run_description: Cytotoxicity against human SW480 cells assessed as growth inhibition after 48 hrs by MTT assay
# Format: functional, cell-based
# conditions: SW480, 48 h
measurement_label: IC50 (µM)

* C[C@H](NC(=O)[C@]12CCC(C)(C)C[C@H]1C1=CC[C@@H]3[C@@]4(C)CC=C(B5OC(C)(C)C(C)(C)O5)C(C)(C)[C@@H]4CC[C@@]3(C)[C@]1(C)CC2)C(=O)O | 28.7
* CC1(C)CC[C@]2(C(=O)NCC(=O)O)CC[C@]3(C)C(=CC[C@@H]4[C@@]5(C)CC=C(B6OC(C)(C)C(C)(C)O6)C(C)(C)[C@@H]5CC[C@]43C)[C@@H]2C1 | 17.9
